Test: Half-life in rat
Format: ADME, organism-based
Details: in vivo
Attribute Measured: half-life (h)

- COc1ccc(-n2nnnc2C(F)(F)F)cc1[C@H]1COC2(CCCNC2c2ccccc2)C1 (stereo partly specified): 1.7
